Target: FL_Reg1 (full-length human Regnase-1) phosphorylation by IKKβ (Homo sapiens)
Construct: made in house; host or cells: Expi293 cells
Sequence (Q5D1E8 1-599): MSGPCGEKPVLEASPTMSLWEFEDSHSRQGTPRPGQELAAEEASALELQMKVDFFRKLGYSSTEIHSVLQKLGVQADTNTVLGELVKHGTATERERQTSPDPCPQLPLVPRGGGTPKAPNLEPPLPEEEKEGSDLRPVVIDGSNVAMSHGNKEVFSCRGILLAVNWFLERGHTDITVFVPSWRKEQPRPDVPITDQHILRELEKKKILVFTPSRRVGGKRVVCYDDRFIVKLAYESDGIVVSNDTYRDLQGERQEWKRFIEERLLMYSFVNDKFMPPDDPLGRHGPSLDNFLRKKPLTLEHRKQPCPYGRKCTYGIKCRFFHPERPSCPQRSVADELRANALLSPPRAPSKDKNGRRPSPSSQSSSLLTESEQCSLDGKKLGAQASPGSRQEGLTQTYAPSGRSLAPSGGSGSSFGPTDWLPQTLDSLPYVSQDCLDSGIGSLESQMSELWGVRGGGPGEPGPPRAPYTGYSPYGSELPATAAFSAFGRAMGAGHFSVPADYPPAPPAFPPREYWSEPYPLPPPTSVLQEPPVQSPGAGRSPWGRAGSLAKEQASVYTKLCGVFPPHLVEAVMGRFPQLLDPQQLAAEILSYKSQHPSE
Assay: Regnase-1 phosphorylation inhibition by compounds (AlphaScreen), IKKβ, full-length Regnase-1
Assay type: biochemical
Conditions: Table 14; phosphorylation by IKKβ; read-out: Phosphorylation inhibition FL_Reg1, 50% inhibition concentration (IKKβ)
Residues, ends and D or L forms follow the SMILES beside them.
Listing of entries alongside the reported pIC50.
Please report pIC50 as the negative decimal logarithm of the molar concentration, giving only the number.

Some molecules with known pIC50 results, for comparison:
- CC[C@H](C)[C@@H]1NC(=O)[C@H](Cc2c[nH]c3ccccc23)NC(=O)[C@H](CO)NC(=O)[C@H](Cc2c[nH]c3ccccc23)NC(=O)[C@H](C(C)C)NC(=O)CNC(=O)[C@H](Cc2ccccc2)NC(=O)[C@H](CCCNC(=N)N)NC(=O)[C@H](C)N(C)C(=O)C[C@@H](C(=O)N2CCCC2)NC(=O)[C@@H]2CCCN2C(=O)[C@H](Cc2ccc(O)cc2)NC1=O [PP14] (HELM PEPTIDE1{[meA].R.F.G.V.W.S.W.I.Y.P.D.[C1CCN([*:1])C1]}$PEPTIDE1,PEPTIDE1,1:R1-12:R3$$$V2.0): 5.80
- CC[C@H](C)[C@@H]1NC(=O)[C@H](CCCCN)NC(=O)[C@H](Cc2ccc(O)cc2)NC(=O)[C@H](Cc2ccccc2)NC(=O)[C@H](C(C)C)NC(=O)[C@H](C)N(C)C(=O)C[C@@H](C(=O)N2CCCC2)NC(=O)[C@H](Cc2c[nH]c3ccccc23)NC(=O)[C@H](CC(N)=O)NC(=O)[C@H](Cc2ccc(O)cc2)NC(=O)[C@H](Cc2c[nH]c3ccccc23)NC1=O [PP19] (HELM PEPTIDE1{[meA].V.F.Y.K.I.W.Y.N.W.D.[C1CCN([*:1])C1]}$PEPTIDE1,PEPTIDE1,1:R1-11:R3$$$V2.0): 5.27
- CC[C@H](C)[C@@H]1NC(=O)[C@H](CC(N)=O)NC(=O)[C@H]([C@@H](C)CC)NC(=O)[C@H](Cc2ccc(O)cc2)NC(=O)[C@H](Cc2c[nH]c3ccccc23)NC(=O)[C@H](CO)NC(=O)[C@H](CC(N)=O)NC(=O)[C@H](C)N(C)C(=O)C[C@@H](C(=O)N2CCCC2)NC(=O)[C@H](Cc2c[nH]cn2)NC(=O)CNC(=O)[C@H](Cc2c[nH]c3ccccc23)NC1=O [PP15] (HELM PEPTIDE1{[meA].N.S.W.Y.I.N.I.W.G.H.D.[C1CCN([*:1])C1]}$PEPTIDE1,PEPTIDE1,1:R1-12:R3$$$V2.0): 5.25
- CC[C@H](C)[C@@H]1NC(=O)[C@H](CC(N)=O)NC(=O)[C@H](Cc2ccc(O)cc2)NC(=O)[C@H](Cc2c[nH]c3ccccc23)NC(=O)[C@H](CO)NC(=O)[C@H](CC(N)=O)NC(=O)[C@H](CO)NC(=O)[C@H](Cc2ccccc2)NC(=O)[C@H](CC(N)=O)NC(=O)[C@H](C)N(C)C(=O)C[C@@H](C(=O)N2CCCC2)NC(=O)[C@H](Cc2c[nH]c3ccccc23)NC1=O [PP16] (HELM PEPTIDE1{[meA].N.F.S.N.S.W.Y.N.I.W.D.[C1CCN([*:1])C1]}$PEPTIDE1,PEPTIDE1,1:R1-12:R3$$$V2.0): 4.69
- C[C@@H]1C(=O)N[C@@H](CCC(=O)O)C(=O)N[C@@H](CC(=O)O)C(=O)N[C@@H]([C@@H](C)O)C(=O)N2CCC[C@H]2C(=O)N[C@@H](CCC(=O)O)C(=O)N[C@@H](CC(=O)O)C(=O)N[C@@H](CC(=O)O)C(=O)N[C@@H](Cc2c[nH]cn2)C(=O)N[C@H](C(=O)N2CCCC2)CC(=O)N1C [PP25] (HELM PEPTIDE1{[C[C@H](C(=O)[*:2])N(C)[*:1]].E.D.T.P.E.D.D.H.D.[C1CCN([*:1])C1]}$PEPTIDE1,PEPTIDE1,1:R1-10:R3$$$V2.0): 4.57
- CC[C@H](C)[C@@H]1NC(=O)[C@H](Cc2c[nH]c3ccccc23)NC(=O)[C@@H](Cc2ccccc2)NC(=O)[C@H](CCCCN)NC(=O)[C@H](C)N(C)C(=O)C[C@@H](C(=O)N2CCCC2)NC(=O)[C@H](CCC(=O)O)NC(=O)[C@H](Cc2ccccc2)NC(=O)[C@H](CO)NC(=O)[C@H](Cc2c[nH]cn2)NC(=O)[C@H](Cc2c[nH]cn2)NC1=O [PP20] (HELM PEPTIDE1{[meA].K.[dF].W.I.H.H.S.F.E.D.[C1CCN([*:1])C1]}$PEPTIDE1,PEPTIDE1,1:R1-11:R3$$$V2.0): 4.61

Reported pIC50 of CC[C@H](C)[C@@H]1NC(=O)[C@H](CC(=O)O)NC(=O)[C@H](C)N(C)C(=O)C[C@@H](C(=O)N2CCCC2)NC(=O)[C@H](Cc2c[nH]c3ccccc23)NC(=O)[C@H](CC(=O)O)NC(=O)[C@H](Cc2c[nH]c3ccccc23)NC(=O)[C@H](Cc2ccc(O)cc2)NC(=O)[C@H](CC(=O)O)NC(=O)[C@H](Cc2ccccc2)NC(=O)[C@H](Cc2c[nH]c3ccccc23)NC1=O [PP17] (HELM PEPTIDE1{[meA].D.I.W.F.D.Y.W.D.W.D.[C1CCN([*:1])C1]}$PEPTIDE1,PEPTIDE1,1:R1-11:R3$$$V2.0) : 6.30

Reported pIC50 of CC[C@H](C)[C@@H]1NC(=O)[C@H](CCCCN)NC(=O)[C@H](Cc2ccc(O)cc2)NC(=O)[C@H](Cc2c[nH]c3ccccc23)NC(=O)[C@H](CO)NC(=O)[C@H](CC(N)=O)NC(=O)[C@H](C)N(C)C(=O)C[C@@H](C(=O)N2CCCC2)NC(=O)[C@H](CC(C)C)NC(=O)CNC(=O)[C@H](Cc2c[nH]c3ccccc23)NC1=O [PP21] (HELM PEPTIDE1{[meA].N.S.W.Y.K.I.W.G.L.D.[C1CCN([*:1])C1]}$PEPTIDE1,PEPTIDE1,1:R1-11:R3$$$V2.0) : 4.71

Measured values drawn from patent US20250018014A1 for this set.
